System: HCC 2998
Protocol notes: NCI tumour cell line growth inhibition, 48 h
Active and inactive are the calls of the source. No stated cut-off is given here; in the data, active = GI50 up to about 1.1 µM and inactive = higher.
Outcomes: active, inactive

>  <Compound>
CCc1nc(N)c2nc(-c3cccs3)oc2n1

>  <Classification>
inactive

$$$$
>  <Compound>
CCOC(=O)c1cc2cc(CSc3ccccc3)ccc2oc1=O

>  <Classification>
inactive

$$$$
>  <Compound>
COC1CCC2C(=O)CCCC2O1 (stereo not drawn)

>  <Classification>
inactive

$$$$
>  <Compound>
Cc1cc(Br)cc(C)c1NC(=O)C(=O)CC(=O)c1sc(-n2nc(-c3ccccc3)cc2-c2ccccc2)nc1C

>  <Classification>
inactive

$$$$
>  <Compound>
COC(=O)[C@@H]1[C@H](O)[C@H](C)[C@H](O)[C@@](C)(O)/C=C\C=C(\C)C(=O)Nc2c(C)c(OC(C)=O)c3c(c2O)C(=O)C(C)=C2OCOC(=C23)/C(C)=C/[C@@](C)(O)[C@H](O)[C@@H](C)[C@H]1OC(C)=O

>  <Classification>
inactive

$$$$
>  <Compound>
O=[N+]([O-])c1ccc(S(=O)(=O)N=Ic2ccccc2)cc1

>  <Classification>
inactive

$$$$
>  <Compound>
CC1(C)CC(=O)C(CC2C(=O)c3ccccc3C2=O)C(=O)C1C(=O)C(=O)Nc1cccc2ccc(O)cc12 (stereo not drawn)

>  <Classification>
inactive

$$$$
>  <Compound>
O=C1CC2(CCC(O)(c3ccc(Cl)cc3)C(C(=O)c3ccc(Cl)cc3)C2)C(=O)c2ccccc2N1 (stereo not drawn)

>  <Classification>
inactive

$$$$
>  <Compound>
CC(=O)OC1C/C(C)=C/CCC(C)/C=C/C2(C)CCC(C(C)(C)O)C12 (stereo not drawn)

>  <Classification>
inactive

$$$$
>  <Compound>
Nc1nc(O)c2nc(N)n(Cc3ccccc3)c2n1

>  <Classification>
inactive

$$$$
>  <Compound>
O=[N+]([O-])c1ccc(O)c(/C=N/NC(=S)N2CCCCC2)c1

>  <Classification>
inactive

$$$$
>  <Compound>
Cc1[nH]c2ccccc2c1C1Cc2ccccc2N1C(=O)/C=C\C(=O)O (stereo not drawn)

>  <Classification>
inactive

$$$$
>  <Compound>
O=C(Nc1ccccc1F)c1cc2ccc(O)cc2o/c1=N\c1cccc(F)c1

>  <Classification>
inactive

$$$$
>  <Compound>
CCn1c(=O)c2c3ccc(OC)cc3[nH]c2c2ccc(OC)cc21

>  <Classification>
inactive

$$$$
>  <Compound>
O=[N+]([O-])c1ccc2occ3c2c1CCC3

>  <Classification>
inactive

$$$$
>  <Compound>
CCOC(=O)/C(C#N)=C/c1ccc(CO)o1

>  <Classification>
inactive

$$$$
>  <Compound>
COC12c3ccccc3-c3ccccc3C1[C@H]1C(=O)OC(=O)[C@H]12 (stereo partly drawn)

>  <Classification>
inactive

$$$$
>  <Compound>
CC(=O)c1cccc(Nc2nc3ccccc3c3occc23)c1

>  <Classification>
inactive

$$$$
>  <Compound>
c1ccc(SCCP(CCP(c2ccccc2)c2ccccc2)c2ccccc2)cc1 (stereo not drawn)

>  <Classification>
inactive

$$$$
>  <Compound>
NC1=C(N2CCCCC2)C(=O)NC2=N/C(=C\c3ccccc3)C(=O)N21

>  <Classification>
inactive

$$$$
>  <Compound>
COC(=O)/C=C\S/C(=C(/c1ccccc1)n1ccc(C(=O)OC)n1)c1ccccc1

>  <Classification>
inactive

$$$$
>  <Compound>
COc1ccc2cc(CNCCOCCOCCNCc3ccc4cc(OC)ccc4c3)ccc2c1

>  <Classification>
active

$$$$
>  <Compound>
CN(C)CCCN1C(=S)N(CCCN(C)C)c2c3cc(O)ccc3nc3c([N+](=O)[O-])ccc1c23

>  <Classification>
inactive

$$$$
>  <Compound>
Cn1c(=O)c(C(c2ccccc2)c2c(O)c3ccccc3n(C)c2=O)c(O)c2ccccc21

>  <Classification>
inactive

$$$$
>  <Compound>
N#CC1=C(N)N(/N=C/c2ccco2)C(c2ccco2)C1(C#N)C#N (stereo not drawn)

>  <Classification>
inactive

$$$$
>  <Compound>
COc1ccc(N2C(=O)C3c4[nH]c5ccc(F)cc5c4C4CCC(C(C)(C)C)CC4C3C2=O)cc1 (stereo not drawn)

>  <Classification>
inactive

$$$$
>  <Compound>
COc1ccc(C(=O)C(C(=O)CCC(=O)Nc2cccc(Cl)c2)c2ccc(OC)cc2)cc1 (stereo not drawn)

>  <Classification>
inactive

$$$$
>  <Compound>
C[n+]1cc2cc(O)c(O)cc2c2ccc3cc(O)c(O)cc3c21.c1ccncc1

>  <Classification>
inactive

$$$$
>  <Compound>
NNC(=S)N/N=C/C(Cl)=C(\Cl)C(=O)O

>  <Classification>
inactive

$$$$
>  <Compound>
O=C1c2cc3c(cc2CC12Cc1cc4c(cc1C2=O)CCCC4)CCCC3

>  <Classification>
inactive

$$$$
>  <Compound>
Cc1c(-c2ccccn2)ccc2ccccc12

>  <Classification>
inactive

$$$$
>  <Compound>
CC(C)C[C@H](NC(=O)[C@H](Cc1cccc2ccccc12)NS(=O)(=O)c1cccc2cccnc12)B(O)O

>  <Classification>
active

$$$$
>  <Compound>
COC(=O)c1cccc2c3ccccc3c3ccccc3c12

>  <Classification>
inactive

$$$$
>  <Compound>
CC(=O)OCC1OC(n2c3c(cc(C#N)c2=S)CCC3)C(OC(C)=O)C(OC(C)=O)C1OC(C)=O (stereo not drawn)

>  <Classification>
inactive

$$$$
>  <Compound>
C[C@]12CC[C@@H]3c4cc(OCC(F)(F)F)c(O)cc4/C(=N/O)C[C@H]3[C@@H]1CC[C@@H]2O

>  <Classification>
inactive

$$$$
>  <Compound>
Oc1cc(-c2ccccc2Cl)nc2cc3c(cc12)OCO3

>  <Classification>
active

$$$$
>  <Compound>
CCc1cccc(C)c1NC(=S)NC(=O)c1ccccc1C(=O)NC(=S)Nc1c(C)cccc1CC

>  <Classification>
inactive

$$$$
>  <Compound>
O=C(Cc1nc2ccccc2s1)C(=O)Nc1ccccc1C(F)(F)F

>  <Classification>
inactive

$$$$
